The following molecules have recorded IC50 on hNaV1.7 (Homo sapiens (Human), UniProt Q15858).
Sequence (Q15858 whole entry): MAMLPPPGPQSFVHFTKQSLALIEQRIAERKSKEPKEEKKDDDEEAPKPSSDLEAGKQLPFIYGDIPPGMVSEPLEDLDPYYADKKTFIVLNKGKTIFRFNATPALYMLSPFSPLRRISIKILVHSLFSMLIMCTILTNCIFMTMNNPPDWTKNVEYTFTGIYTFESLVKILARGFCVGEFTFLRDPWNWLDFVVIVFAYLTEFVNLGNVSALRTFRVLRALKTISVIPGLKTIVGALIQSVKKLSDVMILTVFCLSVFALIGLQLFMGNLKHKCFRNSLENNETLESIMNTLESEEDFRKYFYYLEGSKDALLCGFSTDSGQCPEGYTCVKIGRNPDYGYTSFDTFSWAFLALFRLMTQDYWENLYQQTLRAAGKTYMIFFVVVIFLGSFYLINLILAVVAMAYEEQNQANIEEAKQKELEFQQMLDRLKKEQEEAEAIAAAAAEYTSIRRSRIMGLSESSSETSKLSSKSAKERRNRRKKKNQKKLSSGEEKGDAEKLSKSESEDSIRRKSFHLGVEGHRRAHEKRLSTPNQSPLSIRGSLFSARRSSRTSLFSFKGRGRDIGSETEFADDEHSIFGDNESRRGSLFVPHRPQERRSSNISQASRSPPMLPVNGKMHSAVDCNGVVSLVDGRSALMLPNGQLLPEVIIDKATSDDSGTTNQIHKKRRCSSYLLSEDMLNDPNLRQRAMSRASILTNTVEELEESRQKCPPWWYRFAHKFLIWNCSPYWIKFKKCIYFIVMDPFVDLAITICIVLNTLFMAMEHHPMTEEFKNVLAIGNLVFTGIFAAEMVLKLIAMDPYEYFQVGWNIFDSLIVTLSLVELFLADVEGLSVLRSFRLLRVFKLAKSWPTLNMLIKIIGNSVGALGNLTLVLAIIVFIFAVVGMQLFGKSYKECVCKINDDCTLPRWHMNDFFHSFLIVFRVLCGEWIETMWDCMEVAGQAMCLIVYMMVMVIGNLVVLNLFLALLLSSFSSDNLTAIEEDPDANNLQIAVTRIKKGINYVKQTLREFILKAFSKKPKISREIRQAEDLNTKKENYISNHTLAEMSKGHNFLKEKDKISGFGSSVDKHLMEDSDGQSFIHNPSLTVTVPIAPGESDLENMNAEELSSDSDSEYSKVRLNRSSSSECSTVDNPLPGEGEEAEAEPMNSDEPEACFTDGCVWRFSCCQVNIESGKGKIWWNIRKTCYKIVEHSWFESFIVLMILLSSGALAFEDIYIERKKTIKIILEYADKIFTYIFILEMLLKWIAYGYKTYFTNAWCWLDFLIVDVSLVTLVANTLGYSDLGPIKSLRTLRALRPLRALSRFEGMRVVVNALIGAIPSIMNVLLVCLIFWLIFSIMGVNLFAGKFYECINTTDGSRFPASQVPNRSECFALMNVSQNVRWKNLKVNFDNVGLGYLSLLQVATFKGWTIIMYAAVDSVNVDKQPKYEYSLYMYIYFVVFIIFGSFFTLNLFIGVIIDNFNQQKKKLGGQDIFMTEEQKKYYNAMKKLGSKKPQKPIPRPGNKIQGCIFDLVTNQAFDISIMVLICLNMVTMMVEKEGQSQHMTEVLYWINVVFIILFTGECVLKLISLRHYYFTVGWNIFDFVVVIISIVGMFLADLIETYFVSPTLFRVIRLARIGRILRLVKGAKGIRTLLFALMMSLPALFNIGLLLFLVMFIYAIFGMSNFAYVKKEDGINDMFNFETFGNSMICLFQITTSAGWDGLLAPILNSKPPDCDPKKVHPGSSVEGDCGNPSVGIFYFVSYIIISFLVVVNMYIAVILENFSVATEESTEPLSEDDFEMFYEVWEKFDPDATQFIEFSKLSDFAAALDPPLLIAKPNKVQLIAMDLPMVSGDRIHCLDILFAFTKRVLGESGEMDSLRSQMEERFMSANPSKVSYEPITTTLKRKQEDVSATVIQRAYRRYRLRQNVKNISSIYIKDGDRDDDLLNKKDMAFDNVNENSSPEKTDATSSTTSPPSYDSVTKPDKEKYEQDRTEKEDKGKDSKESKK

# Test smiles, IC50
records = [
    ("CC(C)COc1ncc(-c2cn(C)c3cc(C(=O)NS(=O)(=O)C4CC4)ccc23)cc1Cl", "22 nM"),
    ("Cn1cc(-c2cnc(OCC3CC3)c(Cl)c2)c2ccc(C(=O)NS(C)(=O)=O)cc21", "270 nM"),
    ("COc1ncccc1-c1cn(C)c2cc(C(=O)NS(C)(=O)=O)ccc12", "> 30000 nM"),
    ("Cn1cc(-c2ccc(C(F)F)cc2)c2cc(F)c(C(=O)NS(=O)(=O)C3CC3)cc21", "146 nM"),
    ("CC(C)Cc1ccc(-c2cn(C)c3cc(C(=O)NS(C)(=O)=O)ccc23)cc1", "317 nM"),
    ("CC(C)COc1ncc(-c2cn(C(C)C)c3cc(C(=O)NS(C)(=O)=O)ccc23)cc1Cl", "89 nM"),
    ("CC(C)COc1ncc(-c2cn(C)c3cc(C(=O)NS(=O)(=O)C4CC4)c(F)cc23)cc1Cl", "3.4 nM"),
    ("Cn1cc(-c2ccc(C(F)F)cc2)c2cc(F)c(C(=O)NS(C)(=O)=O)cc21", "956 nM"),
    ("CC(C)COc1ncc(-c2c3ccc(C(=O)NS(C)(=O)=O)cc3nn2C)cc1Cl", "1990 nM"),
    ("Cn1cc(-c2ccc(C(F)F)cc2)c2ccc(C(=O)NS(=O)(=O)C3CC3)cc21", "321 nM"),
    ("Cn1cc(-c2ccc(C(F)(F)F)cc2)c2ccc(C(=O)NS(=O)(=O)c3ccc(F)c(F)c3)cc21", "> 30000 nM"),
    ("Cn1cc(-c2ccc(C(F)(F)F)cc2)c2ccc(C(=O)NS(=O)(=O)C(F)(F)F)cc21", "1080 nM"),
    ("CC(C)COc1ncc(-c2cn(C)c3cc(C(=O)NS(=O)(=O)C(C)(C)C)ccc23)cc1Cl", "156 nM"),
    ("Cn1cc(-c2ccccc2)c2ccc(C(=O)NS(C)(=O)=O)cc21", "7270 nM"),
    ("Cc1ccc(-c2cn(C)c3cc(C(=O)NS(C)(=O)=O)ccc23)cc1", "1030 nM"),
    ("Cn1cc(-c2cnc(OCC3CC3)c(Cl)c2)c2ccc(C(=O)NS(=O)(=O)C3CC3)cc21", "52 nM"),
]

* * *

Below, each entry is listed with its recorded pIC50.
target: NaV1.7 (Homo sapiens (Human), UniProt Q15858); assay: Automated electrophysiology, IonWorks Barracuda population patch clamp, NaV1.7 current (inactivated-state protocol); settings: HEK 293 cells expressing NaV1.7; 600 sec compound incubation; read-out: NaV1.7 Barra IC50
Sequence (Q15858 whole entry): as above
pIC50: −log10 of the molar value.

# Test smiles, pIC50
data = [
    ("Cn1cc(-c2ccccc2)c2ccc(C(=O)NS(C)(=O)=O)cc21", 6.13),
    ("Cn1cc(-c2ccc(C(F)(F)F)cc2Cl)c2ccc(C(=O)NS(C)(=O)=O)cc21", 6.22),
    ("CC(C)COc1ncc(-c2cn(C)c3cc(C(=O)NS(=O)(=O)C(C)(C)C)ccc23)cc1Cl", 5.89),
]

* * *

Below, each entry is listed with its recorded IC50.
target: NaV1.7 (Homo sapiens (Human)); test: Automated electrophysiology, IonWorks Barracuda population patch clamp, NaV1.7 current (inactivated-state protocol); assay type: cell-based; details: HEK 293 cells expressing NaV1.7; 600 sec compound incubation; read-out: NaV1.7 Barra IC50

# Compound, Assay system, Result units, IC50
measured = [
    ("Cn1cc(-c2ccc(C(F)(F)F)cc2)c2ccc(C(=O)NS(=O)(=O)c3cccs3)cc21 [Example 20]", "NaV1.7 (Homo sapiens (Human))", "nM", 419),
    ("CC(C)c1cccc(-c2cn(C)c3cc(C(=O)NS(C)(=O)=O)ccc23)c1 [Example 16]", "NaV1.7 (Homo sapiens (Human))", "nM", 427),
    ("Cn1cc(-c2ccc(C(F)(F)F)cc2)c2cc(F)c(C(=O)NS(C)(=O)=O)cc21 [Example 46]", "NaV1.7 (Homo sapiens (Human))", "nM", 49),
    ("CN(C)S(=O)(=O)NC(=O)c1ccc2c(-c3ccc(C(F)(F)F)cc3)cn(C)c2c1 [Example 33]", "NaV1.7 (Homo sapiens (Human))", "nM", 1920),
    ("CC(C)COc1ncc(-c2cn(C)c3cc(C(=O)NS(=O)(=O)C4CC4)ccc23)cc1Cl [Example 24]", "NaV1.7 (Homo sapiens (Human))", "nM", 294),
]

* * *

Below, each entry is listed with its recorded IC50.
molecular target: NaV1.5 (Homo sapiens (Human), UniProt Q14524); experiment: Automated electrophysiology, IonWorks Barracuda population patch clamp, NaV1.5 current (inactivated-state protocol); assay type: cell-based; settings: HEK 293 cells expressing NaV1.5; read-out: NaV1.5 Barra IC50
Sequence (Q14524 whole entry): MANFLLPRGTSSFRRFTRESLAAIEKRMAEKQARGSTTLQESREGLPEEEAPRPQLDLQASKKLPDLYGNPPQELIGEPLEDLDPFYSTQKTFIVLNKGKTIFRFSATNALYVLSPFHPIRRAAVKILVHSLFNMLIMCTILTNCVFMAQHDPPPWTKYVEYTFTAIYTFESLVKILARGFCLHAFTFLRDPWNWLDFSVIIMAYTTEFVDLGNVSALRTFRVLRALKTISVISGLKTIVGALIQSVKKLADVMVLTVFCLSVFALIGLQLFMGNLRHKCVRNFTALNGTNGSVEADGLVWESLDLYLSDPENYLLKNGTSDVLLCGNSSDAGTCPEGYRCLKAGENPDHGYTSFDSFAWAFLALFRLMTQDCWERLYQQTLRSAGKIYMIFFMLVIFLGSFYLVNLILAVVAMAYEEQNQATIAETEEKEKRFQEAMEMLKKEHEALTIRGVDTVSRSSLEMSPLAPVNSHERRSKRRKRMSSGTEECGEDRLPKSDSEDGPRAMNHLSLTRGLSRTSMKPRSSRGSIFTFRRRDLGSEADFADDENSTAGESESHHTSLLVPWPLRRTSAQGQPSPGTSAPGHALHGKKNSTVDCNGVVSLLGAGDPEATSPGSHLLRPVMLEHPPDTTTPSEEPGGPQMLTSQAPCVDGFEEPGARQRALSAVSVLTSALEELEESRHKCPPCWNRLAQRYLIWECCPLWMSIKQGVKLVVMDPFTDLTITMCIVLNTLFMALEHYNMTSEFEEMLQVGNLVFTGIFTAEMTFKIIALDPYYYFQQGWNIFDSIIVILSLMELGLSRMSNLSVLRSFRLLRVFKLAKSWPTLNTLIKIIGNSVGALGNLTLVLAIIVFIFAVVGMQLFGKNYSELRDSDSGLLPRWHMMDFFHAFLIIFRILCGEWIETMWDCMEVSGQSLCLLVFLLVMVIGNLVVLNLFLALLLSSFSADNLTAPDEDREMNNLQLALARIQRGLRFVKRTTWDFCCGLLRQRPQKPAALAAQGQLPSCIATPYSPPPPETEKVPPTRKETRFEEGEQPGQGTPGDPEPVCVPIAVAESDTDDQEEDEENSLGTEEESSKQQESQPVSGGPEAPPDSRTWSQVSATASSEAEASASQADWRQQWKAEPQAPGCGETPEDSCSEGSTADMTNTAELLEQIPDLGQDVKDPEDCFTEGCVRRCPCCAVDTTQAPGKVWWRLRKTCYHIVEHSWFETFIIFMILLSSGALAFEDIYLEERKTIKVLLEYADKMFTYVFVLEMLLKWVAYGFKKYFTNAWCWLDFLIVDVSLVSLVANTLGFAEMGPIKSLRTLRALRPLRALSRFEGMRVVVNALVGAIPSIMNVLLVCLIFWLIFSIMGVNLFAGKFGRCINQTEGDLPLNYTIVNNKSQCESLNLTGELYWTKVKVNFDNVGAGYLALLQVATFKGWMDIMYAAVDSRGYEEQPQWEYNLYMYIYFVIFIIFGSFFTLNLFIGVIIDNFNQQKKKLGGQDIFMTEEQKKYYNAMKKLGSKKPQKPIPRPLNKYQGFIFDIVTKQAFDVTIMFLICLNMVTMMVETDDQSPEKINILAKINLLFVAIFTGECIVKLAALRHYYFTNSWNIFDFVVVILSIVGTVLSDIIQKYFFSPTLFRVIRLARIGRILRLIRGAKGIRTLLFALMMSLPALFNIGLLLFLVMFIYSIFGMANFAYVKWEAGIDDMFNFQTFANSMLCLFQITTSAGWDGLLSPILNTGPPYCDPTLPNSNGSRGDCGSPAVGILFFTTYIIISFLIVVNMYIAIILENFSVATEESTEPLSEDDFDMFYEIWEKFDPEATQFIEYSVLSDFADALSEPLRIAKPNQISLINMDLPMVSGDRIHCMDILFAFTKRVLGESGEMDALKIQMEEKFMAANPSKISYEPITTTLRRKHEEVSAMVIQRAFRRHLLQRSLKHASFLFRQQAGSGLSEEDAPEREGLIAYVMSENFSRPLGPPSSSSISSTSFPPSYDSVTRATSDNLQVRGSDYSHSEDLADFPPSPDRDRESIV

# Molecule, Assay system, IC50
rows = [
    ("CC(C)c1cccc(-c2cn(C)c3cc(C(=O)NS(C)(=O)=O)ccc23)c1 [Example 16]", "NaV1.5 (Homo sapiens (Human), UniProt Q14524)", "> 30 µM"),
    ("Cc1ccc(-c2cn(C)c3cc(C(=O)NS(C)(=O)=O)ccc23)cc1 [Example 10]", "NaV1.5 (Homo sapiens (Human), UniProt Q14524)", "> 30 µM"),
    ("CCc1cccc(-c2cn(C)c3cc(C(=O)NS(C)(=O)=O)ccc23)c1 [Example 17]", "NaV1.5 (Homo sapiens (Human), UniProt Q14524)", "> 30 µM"),
]

* * *

Below, each entry is listed with its recorded IC50.
molecular target: NaV1.7 (Homo sapiens (Human)); assay: Automated electrophysiology, IonWorks Barracuda population patch clamp, NaV1.7 current (inactivated-state protocol); settings: HEK 293 cells expressing NaV1.7; 600 sec compound incubation; read-out: NaV1.7 Barra IC50
Parameter: IC50

# Molecule, Parameter, Result value
rows = [
    ("CCOc1ncc(-c2cn(C)c3cc(C(=O)NS(C)(=O)=O)ccc23)cn1 [Example 9]", "IC50", "> 30000 nM"),
    ("Cn1cc(-c2cccnc2)c2ccc(C(=O)NS(C)(=O)=O)cc21 [Example 8]", "IC50", "> 30000 nM"),
    ("Cn1cc(-c2ccc(C(F)(F)F)cc2)c2ccc(C(=O)NS(C)(=O)=O)cc21 [Example 1]", "IC50", "85 nM"),
    ("CCc1ccc(-c2cn(C)c3cc(C(=O)NS(C)(=O)=O)ccc23)cc1 [Example 14]", "IC50", "173 nM"),
    ("CC(C)COc1ncc(-c2cn(C)c3cc(C(=O)NS(C)(=O)=O)c(F)cc23)cc1Cl [Example 42]", "IC50", "524 nM"),
    ("CC(C)COc1ncc(-c2cn(C(C)C)c3cc(C(=O)NS(C)(=O)=O)ccc23)cc1Cl [Example 29]", "IC50", "703 nM"),
    ("Cn1cc(-c2ccc(C(F)(F)F)cc2)c2ccc(C(=O)NS(=O)(=O)C(F)(F)F)cc21 [Example 19]", "IC50", "812 nM"),
    ("Cn1cc(-c2cnc(OCC3CC3)c(Cl)c2)c2ccc(C(=O)NS(C)(=O)=O)cc21 [Example 34]", "IC50", "189 nM"),
    ("CC(C)COc1ncc(-c2nn(C)c3cc(C(=O)NS(C)(=O)=O)ccc23)cc1Cl [Example 39]", "IC50", "66 nM"),
    ("CC(C)COc1ncc(-c2cn(C)c3cc(C(=O)NS(=O)(=O)C4CC4)c(F)cc23)cc1Cl [Example 43]", "IC50", "310 nM"),
    ("CC(C)COc1ncc(-c2c3ccc(C(=O)NS(C)(=O)=O)cc3nn2C)cc1Cl [Example 40]", "IC50", "787 nM"),
    ("CC(C)COc1ccc(-c2cn(C)c3cc(C(=O)NS(C)(=O)=O)ccc23)cn1 [Example 23]", "IC50", "183 nM"),
]

* * *

molecular target: NaV1.5 (Homo sapiens (Human)); test: Automated electrophysiology, IonWorks Barracuda population patch clamp, NaV1.5 current (inactivated-state protocol); assay type: cell-based; conditions: HEK 293 cells expressing NaV1.5; read-out: NaV1.5 Barra IC50
pIC50: −log10 of the molar value.
Below, each entry is listed with its recorded pIC50.
Parameter: pIC50

# Compound, Result value
measured = [
    ("CC(C)COc1ncc(-c2c3ccc(C(=O)NS(=O)(=O)C4CC4)cc3nn2C)cc1Cl [Example 41]", 4.95),
    ("CC(C)COc1ncc(-c2cn(C)c3cc(C(=O)NS(=O)(=O)C4CC4)ccc23)cc1Cl [Example 24]", 4.92),
    ("Cn1cc(-c2ccc(C(F)F)cc2)c2cc(F)c(C(=O)NS(=O)(=O)C3CC3)cc21 [Example 49]", 5.01),
    ("Cn1cc(-c2cnc(OCC3CC3)c(Cl)c2)c2ccc(C(=O)NS(C)(=O)=O)cc21 [Example 34]", 5.08),
]
